B1: ANKRD40 (parent)
chain: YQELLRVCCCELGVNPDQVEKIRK

# Variants of: B1
# run-description: protein stability index of a GFP-peptide fusion (GPS, HEK-293T) (PSI 1-6); higher = more stable;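 further: lentivirally expressed fusions sorted by FACS into six bins by GFP to DsRed ratio, PSI derived from sequencing read proportions per bin multiplied by bin number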
# condition-label: c terminus: a fixed tail appended
Label scheme for protein stability index: lower than 2 is rule not met, 2 and above is rule met.

Problem: Does the reported protein stability index for `V14L` fall at or above the 2 mark?
Solution: rule met

Problem: Could you verify whether the entry `E11G` shows protein stability index of no less than 2?
Solution: rule not met

Problem: State whether the measured protein stability index reaches 2, counting equality as reaching it, for `C9E`
Solution: rule met

Problem: Is protein stability index at least 2? Consider `V7P`
Solution: rule met

Problem: Can `R6L` be said to have protein stability index at or above 2?
Solution: rule not met

Problem: Quick check, protein stability index >= 2? `Q2G`
Solution: rule met

Problem: Does the variant `L4M` have recorded protein stability index that is 2 or more?
Solution: rule not met

Problem: In plain terms: is recorded protein stability index at least 2 for `V14S` ?
Solution: rule met

Problem: Reported protein stability index at or above 2? `Y1M`
Solution: rule met
